- Tested on: Caco-2
- experimentalSetup: basolateral to apical
The molecules listed here are annotated with their Caco-2 B–A.
# output: numeric value plus its unit

givenSmiles: CC(C)(N)C(=O)N1CCn2c(nc(-c3ccc(F)cc3)c2Nc2ccc(Cl)cc2)C1
targetOrTestSystem: Caco-2
quantity: Caco-2 B–A
assayResult: 1.86 cm/s × 10^6
//
givenSmiles: CC(C)(N)C(=O)N1CCn2c(nc(-c3ccc(F)cc3)c2Nc2ccc(F)c(F)c2)C1
targetOrTestSystem: Caco-2
quantity: Caco-2 B–A
assayResult: 1.03 cm/s × 10^6
//
givenSmiles: CC(C)(N)C(=O)N1CCn2c(nc(-c3ccc(F)cc3)c2Nc2ccc(Cl)c(F)c2)C1
targetOrTestSystem: Caco-2
quantity: Caco-2 B–A
assayResult: 0.87 cm/s × 10^6
//
givenSmiles: NCC(=O)N1CCn2c(nc(-c3ccc(F)cc3)c2Nc2ccc(F)cc2)C1
targetOrTestSystem: Caco-2
quantity: Caco-2 B–A
assayResult: 2.55 cm/s × 10^6
//
givenSmiles: NCC(=O)N1CCn2c(nc(-c3cccc(F)c3)c2Nc2ccc(F)cc2)C1
targetOrTestSystem: Caco-2
quantity: Caco-2 B–A
assayResult: 2.32 cm/s × 10^6
//
givenSmiles: CC(C)(N)C(=O)N1CCn2c(nc(-c3ccc(F)cc3)c2Nc2ccc(F)cc2)C1
targetOrTestSystem: Caco-2
quantity: Caco-2 B–A
assayResult: 8.38 cm/s × 10^6

We now examine a further molecule.
Form field - read-out: Caco-2 B–A; system: Caco-2; submitted item: NCC(=O)N1CCn2c(nc(-c3ccc(F)cc3)c2Nc2ccc(Cl)cc2)C1
1.25 cm/s × 10^6

* * *

- Tested on: Caco-2
- experimentalSetup: apical to basolateral
# cutoff 0.8 cm/s × 10^6 applies to Caco-2 A–B; >= gives criterion met, < gives criterion not met

compound: CC(C)(N)C(=O)N1CCn2c(nc(-c3ccc(F)cc3)c2Nc2ccc(Cl)c(F)c2)C1 [Compound 32]
targetOrTestSystem: Caco-2
group: criterion met

compound: NCC(=O)N1CCn2c(nc(-c3cccc(F)c3)c2Nc2ccc(F)cc2)C1 [Compound 18]
targetOrTestSystem: Caco-2
group: criterion not met

compound: CC(C)(N)C(=O)N1CCn2c(nc(-c3ccc(F)cc3)c2Nc2ccc(Cl)cc2)C1 [Compound 28]
targetOrTestSystem: Caco-2
group: criterion met

Attention now turns to another entry.
Would you say NCC(=O)N1CCn2c(nc(-c3ccc(F)cc3)c2Nc2ccc(F)cc2)C1 [Compound 5] shows Caco-2 A–B at minimum 0.8 cm/s × 10^6?
criterion not met

* * *

The compounds listed here are annotated with their PAMPA (% absorbed).
Write the answer as a number in % absorbed, unit excluded.

Answered examples (3):
givenSmiles: CC(C)(N)C(=O)N1CCn2c(nc(-c3ccc(F)cc3)c2Nc2ccc(F)cc2)C1
unitAbbreviation: % absorbed
PAMPA (% absorbed): 81
//
givenSmiles: CC(C)(N)C(=O)N1CCn2c(nc(-c3ccc(F)cc3)c2Nc2ccc(Cl)cc2)C1
unitAbbreviation: % absorbed
PAMPA (% absorbed): 89
//
givenSmiles: CC(C)(N)C(=O)N1CCn2c(nc(-c3ccc(F)cc3)c2Nc2ccc(F)c(F)c2)C1
unitAbbreviation: % absorbed
PAMPA (% absorbed): 86

For the compound CC(C)(N)C(=O)N1CCn2c(nc(-c3ccc(F)cc3)c2Nc2ccc(Cl)c(F)c2)C1 , what PAMPA (% absorbed) is on record?
94

For the compound NCC(=O)N1CCn2c(nc(-c3ccc(F)cc3)c2Nc2ccc(Cl)cc2)C1 , what PAMPA (% absorbed) is on record?
52

For the compound NCC(=O)N1CCn2c(nc(-c3ccc(F)cc3)c2Nc2ccc(F)cc2)C1 , what PAMPA (% absorbed) is on record?
52

* * *

- Tested on: Caco-2
- experimentalSetup: apical to basolateral
The compounds listed here are annotated with their Caco-2 A–B.
Write the answer as a number in cm/s × 10^6, unit excluded.

compound: CC(C)(N)C(=O)N1CCn2c(nc(-c3ccc(F)cc3)c2Nc2ccc(F)c(F)c2)C1 [Compound 30]
quantity: Caco-2 A–B
unitAbbreviation: cm/s × 10^6
assayResult: 0.14

compound: CC(C)(N)C(=O)N1CCn2c(nc(-c3ccc(F)cc3)c2Nc2ccc(F)cc2)C1 [Compound 11]
quantity: Caco-2 A–B
unitAbbreviation: cm/s × 10^6
assayResult: 3.05

For the compound NCC(=O)N1CCn2c(nc(-c3ccc(F)cc3)c2Nc2ccc(Cl)cc2)C1 [Compound 27] , what Caco-2 A–B is on record?
0.44

Cited source for all entries: paper PMC6950218
